- Tested on: AP-1
- test_method_notes: Cellular transrepression assay (AP-1 luciferase reporter in A549 cells, PMA activated)
- Type: cell-based
- test_settings: 7 h, 10 ng/ml PMA, read-out: AP-1 Max % inhibition (measured in cellular transrepression assay)

{"columns": ["compound", "unit_annotation", "Emax"],
 "data": [
  ["CN(C)C(=O)c1ccc(-c2ccc3c(n2)Oc2ncccc2C3C(C)(C)C(=O)Nc2nncs2)cc1 (stereo not shown) [Example 3]", "%", 38.6],
  ["CCN(C)C(=O)c1ccc(-c2ccc3c(n2)Oc2nc(C)ccc2[C@@H]3C(C)(C)C(=O)Nc2nnc(C(=O)N3CCOCC3)s2)cc1", "%", 35.4],
  ["CC(C)Sc1ccc2c(n1)Oc1nc(-c3ccc(C(=O)N(C)C)cc3)ccc1C2C(C)(C)C(=O)Nc1nncs1 (stereo not shown)", "%", 30.5],
  ["CN(C)c1ccc2c(n1)Oc1nc(-c3ccc(C(=O)N4CCOCC4)cc3)ccc1C2C(C)(C)C(=O)Nc1nncs1 (stereo not shown)", "%", 48.7]
]}

Values compiled from patent US8304539B2.
